- System: P12-Ichikawa
- Method summary: cell viability relative to DMSO control; higher = less cytotoxic
- Stated conditions: HPLM + 10% dialyzed FBS; 48 h; 46.1 µM
In this section we review reported cell viability values for a set of compounds.
Please reply with the bare figure in % and do not write the unit itself.

Field: example entries. Status: answers known.
| Compound | cell viability (%) |
| --- | --- |
| C=CCc1cc(OC)c(O)c(C(=O)NCCO)c1 | 98.2 |
| CCCOc1ccc2[nH]c(NC(=O)OC)nc2c1 | 23.2 |
| Cc1cccc(N(C)C(=S)Oc2ccc3ccccc3c2)c1 | 109 |
| CCCNCC(O)COc1ccccc1C(=O)CCc1ccccc1 (stereo not given) | 115 |
| Cn1c(=O)c2[nH]cnc2n(C)c1=O | 104 |

Input: Requested read-out: cell viability. Entry: "CN1/C=C(\N=C(NC2=CC=C(C=C2)C(=O)N3CCOCC3)/C1=O)/C4=C(C)C(=CC=C4)NC(=O)C5=CC=C(C=C5)C(C)(C)C"
Output: 89.5

Input: Field request: cell viability | item: COc1nccc(-c2c(-c3ccc(F)cc3)ncn2C2CCC(O)CC2)n1 (stereo not given)
Output: 75.1

Input: // lookup cell viability for "OC1=CC2=C(C(=O)\C=C(/O2)C3=CC=CC=C3)C(=C1O)O"
Output: 10.4

Input: Item under review: "C=CC(=O)Nc1cccc(Oc2nc(Nc3ccc(N4CCN(C)CC4)cc3OC)ncc2Cl)c1" . Reported cell viability?
Output: 52.2

* * *

As shown below, each of these compounds has a reported cell viability value.
- System: SEM cells
- Method summary: cell viability relative to DMSO control; higher = less cytotoxic
- Stated conditions: HPLM + 10% dialyzed FBS; 48 h; 5.12 µM
# value in %; strip the unit string

Input: Any idea what cell viability was measured for "C[C@H](NC(=O)Cc1cc(F)cc(F)c1)C(=O)N[C@@H]1C(=O)N(C)c2ccccc2-c2ccccc21" ?
Output: 35.4

Input: // returns reported cell viability for input OC(CCN1CCCCC1)(C2CC\3CC2\C=C3)C4=CC=CC=C4 (centres undefined)
Output: 118

Input: Request the reported cell viability associated with OCCNC1CCCc2c1[nH]c1ccc(-c3ccccc3)cc21 (centres undefined)
Output: 85.4

Input: Record request: cell viability value, item "Cc1ccc(NC(=O)Nc2cc(C(F)(F)F)ccc2F)cc1Nc1ccc2c(c1)NC(=O)/C2=C\c1ccc[nH]1"
Output: 111

Input: Which cell viability reading was recorded for the compound "O=C(NCCO[N+](=O)[O-])c1cccnc1" ?
Output: 108

Input: Record request: cell viability value, item "COC(=O)Nc1ccc(-c2nc(N3CCOCC3)c3cnn(C4CCN(Cc5cccnc5)CC4)c3n2)cc1"
Output: 21.4

Input: Using the record for "CC1=CC=C2\N=C/3N(CC[C@@]3(O)C(=O)C2=C1)C4=CC=CC=C4" , report its cell viability.
Output: 70.5

Input: Requested field: cell viability. Item: "O=C(C[C@@H]1C/C=C\CCC(=O)O[C@H](c2ccccc2)CNC1=O)NCc1ccc(Cl)cc1"
Output: 107

Input: Entry "COc1ccc2c(OCc3nnc4ccc(-c5ccccc5)nn34)ccnc2c1" has what cell viability?
Output: 97.4

* * *

cell viability by entry:
- System: NOMO1
- Method summary: cell viability relative to DMSO control; higher = less cytotoxic
- Stated conditions: HPLM + 10% dialyzed FBS; 48 h; 1.71 µM
Returns: string containing the number followed by the unit.

A selection of reference data follows.
| Compound | Val |
| --- | --- |
| COCCCOc1ccnc(C[S+]([O-])c2nc3ccccc3[nH]2)c1C (stereo not drawn) | 127% |
| COc1ccc(C(=O)CC(=O)c2ccc(C(C)(C)C)cc2)cc1 | 130% |
| O=[S+]([O-])(O)c1ccc2cc(/N=N/c3cc([S+](=O)([O-])O)c4cccnc4c3O)ccc2c1 | 126% |
| C=C[C@H]1CN2CCC1C[C@@H]2[C@@H](O)c1ccnc2ccccc12 (stereo partly drawn) | 97.1% |
| FC1=CC=C(CN2\C=C/C=C(/C(=O)N[C@@H](COC3=CC4=C(NC(=O)N4)C=C3)C5=CC=CC=C5)C2=O)C=C1F | 82.8% |

Input: # cell viability lookup, item "CCCc1nc2c(C)cc(-c3nc4ccccc4n3C)cc2n1Cc1ccc(-c2ccccc2C(=O)O)cc1"
Output: 138%

Input: Recorded cell viability of "CNC(=O)c1ccc(N2C(=S)N(c3ccc(C#N)c(C(F)(F)F)c3)C(=O)C2(C)C)cc1F" , please.
Output: 115%

Input: Report cell viability for "C[C@@H](NCc1cc2ccccc2[nH]1)c1cccc2ccccc12" please.
Output: 95.2%

* * *

Listed here: items and their measured cell viability.
- System: P12-Ichikawa
- Method summary: cell viability relative to DMSO control; higher = less cytotoxic
- Stated conditions: HPLM + 10% dialyzed FBS; 48 h; 1.71 µM
Response body: numeric value in %, unit text excluded.

| Compound | cell viability / % |
| --- | --- |
| NC1CCC(Nc2nc(Nc3ccc(C(=O)N4CCCCC4)cc3)c3ncn(-c4cccc(F)c4)c3n2)CC1 (configuration not stated) | 121 |
| COc1cc(NC(=O)c2ccc(-c3ccc(Cl)cc3)o2)cc(OC)c1 | 111 |
| CC(C[N+](C)(C)C)OC(N)=O (configuration not stated) | 118 |
| COc1ccc(CC2c3cc(OC)c(OC)cc3CC[N+]2(C)CCC(=O)OCCCCCOC(=O)CC[N+]2(C)CCc3cc(OC)c(OC)cc3C2Cc2ccc(OC)c(OC)c2)cc1OC (configuration not stated) | 96.6 |
| CCCC(CCC)C(=O)[O-] | 103 |

Input: Data request, read-out cell viability, for "COC(=O)Nc1ccc(-c2nc(N3CCOCC3)c3cnn(C4CCN(Cc5cccnc5)CC4)c3n2)cc1"
Output: 83.6

Input: So what's the measured cell viability for this one? "C[C@]12CC[C@@H]3c4ccc(O)cc4CC[C@H]3[C@@H]1CC[C@@H]2O"
Output: 102

Input: Name the reported cell viability value associated with the compound "CN[C@H]1[C@H](O[C@@H]2[C@H](O[C@@H]3[C@@H](O)[C@@H](O)[C@@H](NC(=N)N)[C@@H](O)[C@H]3NC(=N)N)O[C@H](C)[C@@]2(O)C=O)O[C@@H](CO)[C@@H](O)[C@H]1O"
Output: 110

Input: Quick check: cell viability of OCCNC1CCCc2c1[nH]c1ccc(-c3ccccc3)cc21 (configuration not stated) ?
Output: 108

Input: cell viability for "Cc1ccc(NC(=O)c2cccc(N(C)C)c2)cc1NC(=O)c1ccc(O)cc1" ?
Output: 108

* * *

- Test system: NOMO1
- Method summary: cell viability relative to DMSO control; higher = less cytotoxic
- Stated conditions: HPLM + 10% dialyzed FBS; 48 h; 5.12 µM
Each entry below carries its recorded cell viability.

| Molecule | System tested | Quantity | Val |
| --- | --- | --- | --- |
| Cc1cc(-c2nnc3n2CCCCC3)c(C)n1-c1ccccc1 | NOMO1 | cell viability | 117% |
| CN1/C=C(\N=C(NC2=CC=C(C=C2)C(=O)N3CCOCC3)/C1=O)/C4=C(C)C(=CC=C4)NC(=O)C5=CC=C(C=C5)C(C)(C)C | NOMO1 | cell viability | 97.2% |
| CN1C2=CC(=O)/C(=N/NC(N)=O)C=C2CC1S(=O)(=O)[O-].[Na+] (centres undefined) | NOMO1 | cell viability | 125% |

Switching to the query record.
Input: Item under review: "Cn1cnc(-c2cc3nccc(Oc4ccc(NC(=S)NC(=O)Cc5ccccc5)cc4F)c3s2)c1" . Reported cell viability?
Output: 77.9%

* * *

- Tested on: SEM cells
- Method summary: cell viability relative to DMSO control; higher = less cytotoxic
- Stated conditions: RPMI 5 mM glucose + 10% dialyzed FBS; 48 h; 5.12 µM
Could you please mark label 1 for values of cell viability below 90% and label 0 for values at or above it?

| Compound | System tested | Assigned label |
| --- | --- | --- |
| O=C(O)[C@@H](c1ccc(OCc2ccc3ccccc3n2)cc1)C1CCCC1 | SEM cells | label 1 |
| CO[C@@H]1[C@@H](OC(N)=O)[C@@H](O)[C@H](OC2=CC=C3\C(=C(NC(=O)C4=CC=C([O-])C(=C4)CC=C(C)C)/C(=O)OC3=C2C)O)OC1(C)C | SEM cells | label 0 |
| O=C([O-])[C@H](CC(=O)N1C[C@H]2CCCC[C@H]2C1)Cc1ccccc1 | SEM cells | label 0 |
| CCCOc1ccc2[nH]c(NC(=O)OC)nc2c1 | SEM cells | label 1 |
| O=C(C[C@@H]1C/C=C\CCC(=O)O[C@H](c2ccccc2)CNC1=O)NCc1ccc(Cl)cc1 | SEM cells | label 0 |

Input: Take the compound COc1ccccc1OCCNCC(O)COc1cccc2[nH]c3ccccc3c12 (centres undefined) and say whether its cell viability is less than 90%.
Output: label 0

Input: Hi there! Is cell viability for "Cn1cc(-c2cnn3c(N)c(Br)c([C@@H]4CCCNC4)nc23)cn1" below 90%, do you know?
Output: label 1

Input: Regarding "COC/1=C/[C@@H]2[C@@H]3CC4=C(C(=C(OC)C=C4)O)[C@]2(CCN3C)CC1=O" , kindly confirm whether its cell viability is beneath 90%.
Output: label 0

Input: # strict comparison: is reported cell viability < 90%? input = "C/C(=C\c1csc(C)n1)[C@@H]1C[C@@H]2O[C@]2(C)CCC[C@H](C)[C@H](O)[C@@H](C)C(=O)C(C)(C)[C@@H](O)CC(=O)O1"
Output: label 1

Input: Decide: cell viability of "NCCCC(O)(P(=O)(O)O)P(=O)(O)O.O.O.O.[Na+]" strictly below 90%?
Output: label 1

Input: Consider the compound "NC/1=N/C(=O)N(C[C@@H](CO)OC[P](O)(O)=O)/C=C1" . Is its cell viability strictly less than 90%?
Output: label 0

Input: I wonder whether "COC(=O)Nc1ccc(-c2nc(N3CCOCC3)c3cnn(C4CCN(Cc5cccnc5)CC4)c3n2)cc1" has cell viability below 90%. Can you tell?
Output: label 1

Input: Problem: For the compound "CC(=O)OCC(=O)[C@@]12OC(C)(C)O[C@@H]1C[C@H]3[C@@H]4C[C@H](F)C/5=C/C(=O)/C=C\[C@]5(C)[C@@]4(F)[C@@H](O)C[C@]23C" , is cell viability under 90%?
Output: label 0
